- TEST TARGET: CDK4/Cyclin D1 complex (UniProt P11802 1-303; P24385 1-295)
- Sequence (P11802 other isoform, or with tags, fused parts or gaps, chain 1 of 2): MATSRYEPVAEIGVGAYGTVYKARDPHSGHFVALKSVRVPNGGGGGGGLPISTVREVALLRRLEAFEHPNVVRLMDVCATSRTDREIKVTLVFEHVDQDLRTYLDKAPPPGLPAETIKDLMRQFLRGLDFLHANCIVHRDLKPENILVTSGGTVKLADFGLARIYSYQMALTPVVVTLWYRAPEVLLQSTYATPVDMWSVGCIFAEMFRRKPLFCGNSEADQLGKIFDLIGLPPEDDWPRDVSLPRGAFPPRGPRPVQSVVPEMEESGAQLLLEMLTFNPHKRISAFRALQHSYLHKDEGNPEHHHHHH
- Sequence (P24385 whole entry, chain 2 of 2): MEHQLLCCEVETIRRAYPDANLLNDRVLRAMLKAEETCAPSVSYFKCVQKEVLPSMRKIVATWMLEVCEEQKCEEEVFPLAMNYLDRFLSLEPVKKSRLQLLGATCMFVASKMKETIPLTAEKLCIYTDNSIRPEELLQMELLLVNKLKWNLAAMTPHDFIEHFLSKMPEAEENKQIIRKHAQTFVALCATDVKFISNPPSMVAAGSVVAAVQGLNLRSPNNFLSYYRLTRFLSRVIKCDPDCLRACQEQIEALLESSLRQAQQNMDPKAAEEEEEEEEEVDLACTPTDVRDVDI
- ASSAY INFO: cell-based or functional assay
Ends that are not written are not given here.
Assign classes using reported % Inhibition, cyclin D1/CDK4 kinase values and the ranges low: < 20%; intermediate: ≥ 20% and < 60%; high: ≥ 60%, please.

Solved cases below.
{"BINDER": "HSKRRLIF-NH2 [p21 (152-159) HSKRRLIF-NH2]", "CATEGORY LABEL": "high"}
{"BINDER": "DFYHSK-NH2 [DFYHSK-NH2]", "CATEGORY LABEL": "low"}
{"BINDER": "TDFYHSKRRLIF-NH2 [p21 (148-159) TDFYHSKRRLIF-NH2]", "CATEGORY LABEL": "high"}

QUERY: For this binder, which bin applies? DFYHSKRRL-NH2 [DFYHSKRRL-NH2]
RESULT: low

QUERY: For this binder, which bin applies? FYHSKR-NH2 [FYHSKR-NH2]
RESULT: low

QUERY: For this binder, which bin applies? DFYHSKRRLIF-NH2 [p21 (149-159) DFYHSKRRLIF-NH2]
RESULT: high

QUERY: For this binder, which bin applies? HSKRRLI-NH2 [HSKRRLI-NH2]
RESULT: low

QUERY: For this binder, which bin applies? DAYHSKRRLIFS-NH2 [DAYHSKRRLIFS-NH2]
RESULT: high

QUERY: For this binder, which bin applies? DFYHSKRRAIFS-NH2 [DFYHSKRRAIFS-NH2]
RESULT: intermediate

QUERY: For this binder, which bin applies? SKRRLIF-NH2 [SKRRLIF-NH2]
RESULT: high

QUERY: For this binder, which bin applies? DFYHSKRRLIAS-NH2 [DFYHSKRRLIAS-NH2]
RESULT: intermediate

# credit: patent US20040176301A1
